Target: human C5 protein (human, UniProt P01031 19-673; P01031 678-1676)
Experiment: cell-based or functional assay
Positions of bridges follow the written chain, without caps; N, C: chain ends. Non-standard residues stand in square brackets, D forms with d. Primed or numbered codes have the meaning given here. mXylyl(5) = bridging moiety between the two residues (meta-xylyl); mXylyl″ = bridging moiety between the two marked residues; Trp(7-aza) = N[C@@H](Cc1c[nH]c2ncccc12)C(=O)O; mXylyl(4) = bridging moiety between residues; Phe(3-Cl) = N[C@@H](Cc1cccc(Cl)c1)C(=O)O; hPhe = N[C@@H](CCc1ccccc1)C(=O)O; Phg = N[C@H](C(=O)O)c1ccccc1; Tle = CC(C)(C)[C@H](N)C(=O)O; NMeS = CN[C@@H](CO)C(=O)O; hCys = N[C@@H](CCS)C(=O)O; Nva = CCC[C@H](N)C(=O)O
For each of the binders below, state its Avg. IC50, human hemolysis assay (complete human sera).

// Input: Ac-CVERFCDVYWEF-NH2 (linker 1-6 via mXylyl(5)) [R3048] . Output its Avg. IC50, human hemolysis assay (complete human sera) only.
19.3 nM

Name the recorded Avg. IC50, human hemolysis assay (complete human sera) of the item Ac-[Nva]C[Phg]T[Trp(7-aza)]E[hPhe][NMeS]AC[Nva]-NH2 (linker 2-10 via mXylyl(4)) [R3095] in your answer.
> 50000 nM

Read the entry Ac-YEN[Tle]YWEYP[Phg][Nva]-NH2 (SMILES CCC[C@H](NC(=O)[C@@H](NC(=O)[C@@H]1CCCN1C(=O)[C@H](Cc1ccc(O)cc1)NC(=O)[C@H](CCC(=O)O)NC(=O)[C@H](Cc1c[nH]c2ccccc12)NC(=O)[C@H](Cc1ccc(O)cc1)NC(=O)[C@@H](NC(=O)[C@H](CC(N)=O)NC(=O)[C@H](CCC(=O)O)NC(=O)[C@H](Cc1ccc(O)cc1)NC(C)=O)C(C)(C)C)c1ccccc1)C(N)=O) [R3041] and write its reported Avg. IC50, human hemolysis assay (complete human sera).
71.3 nM

# return recorded Avg. IC50, human hemolysis assay (complete human sera) for input Ac-[Nva][hCys][Phg]T[Trp(7-aza)]EY[NMeS]HC[Nva]-NH2 (linker 2-10 via mXylyl(4)) [R3103]
> 25000 nM

Check the records and state Avg. IC50, human hemolysis assay (complete human sera) for Ac-[Nva]C[Phg]T[Trp(7-aza)]E[Phe(3-Cl)][NMeS]AC[Nva]-NH2 (linker 2-10 via mXylyl″) [R3134]
> 5000 nM
